MEASURED TARGET: ER α-glucosidase GANAB (from Pompe disease Fibroblast lysates) (Homo sapiens)
Construct: Cellular homogenates of Pompe fibroblasts (1 mg mL^−1) were used as protein source for GANAB; endogenous in cells; host or cells: Pompe disease fibroblasts (homogenate)
Sequence (Q14697 29-944): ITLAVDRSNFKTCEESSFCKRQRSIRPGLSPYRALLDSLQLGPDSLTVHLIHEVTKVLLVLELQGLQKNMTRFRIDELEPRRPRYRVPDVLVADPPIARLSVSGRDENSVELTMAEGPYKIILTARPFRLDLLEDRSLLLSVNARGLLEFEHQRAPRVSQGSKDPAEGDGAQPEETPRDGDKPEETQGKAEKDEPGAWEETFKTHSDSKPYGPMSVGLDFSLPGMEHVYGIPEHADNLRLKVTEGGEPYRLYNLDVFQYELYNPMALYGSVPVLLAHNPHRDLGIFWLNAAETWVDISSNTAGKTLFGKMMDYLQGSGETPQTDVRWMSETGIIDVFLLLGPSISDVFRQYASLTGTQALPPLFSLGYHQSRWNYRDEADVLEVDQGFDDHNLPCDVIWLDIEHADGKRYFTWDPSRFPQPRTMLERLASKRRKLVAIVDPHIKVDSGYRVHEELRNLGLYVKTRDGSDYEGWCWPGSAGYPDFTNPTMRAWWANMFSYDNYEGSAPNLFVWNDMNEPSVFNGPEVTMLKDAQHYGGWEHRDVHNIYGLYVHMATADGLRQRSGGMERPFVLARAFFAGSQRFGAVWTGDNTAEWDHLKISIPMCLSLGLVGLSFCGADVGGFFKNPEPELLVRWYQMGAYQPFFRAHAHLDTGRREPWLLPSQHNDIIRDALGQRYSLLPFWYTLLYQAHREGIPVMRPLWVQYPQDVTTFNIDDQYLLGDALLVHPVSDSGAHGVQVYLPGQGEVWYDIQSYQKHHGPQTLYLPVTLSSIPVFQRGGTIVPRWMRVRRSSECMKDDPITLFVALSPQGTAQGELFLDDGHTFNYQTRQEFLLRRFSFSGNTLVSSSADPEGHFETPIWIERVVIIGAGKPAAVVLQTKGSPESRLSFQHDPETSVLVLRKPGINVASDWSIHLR
Sequence (P14314 15-528 partner): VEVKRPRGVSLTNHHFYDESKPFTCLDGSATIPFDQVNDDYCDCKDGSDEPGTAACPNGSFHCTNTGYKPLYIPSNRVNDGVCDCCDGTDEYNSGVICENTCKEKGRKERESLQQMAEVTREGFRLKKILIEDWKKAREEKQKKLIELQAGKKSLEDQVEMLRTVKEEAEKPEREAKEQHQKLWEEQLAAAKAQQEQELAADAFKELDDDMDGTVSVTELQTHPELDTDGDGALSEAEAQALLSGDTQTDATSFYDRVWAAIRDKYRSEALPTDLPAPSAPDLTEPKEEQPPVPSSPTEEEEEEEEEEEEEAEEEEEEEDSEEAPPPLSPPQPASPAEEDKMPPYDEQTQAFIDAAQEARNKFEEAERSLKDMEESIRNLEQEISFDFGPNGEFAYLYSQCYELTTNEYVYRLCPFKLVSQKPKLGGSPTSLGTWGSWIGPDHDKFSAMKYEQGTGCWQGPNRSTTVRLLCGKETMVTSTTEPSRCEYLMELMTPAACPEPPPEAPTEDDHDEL
METHOD DESCRIPTION: fluorogenic substrate (4MU-α-D-glucopyranoside) assay on GANAB in Pompe fibroblast homogenates;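 also: inhibitor preincubated 30 min at 37 °C with homogenate, then GANAB activity read after 2 h with 3.0 mM fluorogenic substrate in McIlvaine buffer containing 0.1% BSA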
Type: biochemical
MEASUREMENT CONTEXT: Table S2; 4-MU alpha glucoside substrate; listed as 293; read-out: IC50 on GANAB
MEASURED PARAMETER: pIC50
Numbers only, as −log10 of the molar value.

Query: Find pIC50 (ER α-glucosidase GANAB (from Pompe disease Fibroblast lysates) (Homo sapiens)) for the entry `CCCCCCN1C[C@H](O)[C@@H](O)[C@H](O)[C@H]1CO`
Reply: 4.85
